# Test system: ATP;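 note: ATP exposure 15 min at 22 °C before imaging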
# Assay Summary: switch fluorescence ratio, 500 uM ATP over buffer (Cy3 cluster intensity, sum of 5 cycles each) (fold (ratio)); higher = stronger signal-on switching upon ATP binding; sequences stand for … in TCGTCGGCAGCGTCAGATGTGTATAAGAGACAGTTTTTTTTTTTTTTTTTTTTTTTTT…TC
# Experimental Parameters: aptamer strand: ATP DNA aptamer (quencher-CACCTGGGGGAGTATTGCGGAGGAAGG + anchor), 100 nM annealed; ATP concentration: 500 uM
Kind request: treat 1 as inclusive, so switch fluorescence ratio at 1 or higher is satisfied, anything lower is not satisfied.

# Ordered Residues, Qualitative Label
rows = [
    ("CATCGTAAAT", "satisfied"),
    ("CCAGCTGTAT", "satisfied"),
    ("TTGATTGGCC", "not satisfied"),
    ("TTTTCTAAAT", "satisfied"),
    ("ACAGCGGGTG", "satisfied"),
    ("GTGATTGGGA", "not satisfied"),
]

--- query ---
Query: Tell me whether switch fluorescence ratio is at least 1 here: `CTAGGGGACA`
Reply: satisfied

====

# Tested on: ATP;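 note: ATP exposure 15 min at 22 °C before imaging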
# Assay Summary: switch fluorescence ratio, 500 uM ATP over buffer (Cy3 cluster intensity, sum of 5 cycles each) (fold (ratio)); higher = stronger signal-on switching upon ATP binding; sequences stand for … in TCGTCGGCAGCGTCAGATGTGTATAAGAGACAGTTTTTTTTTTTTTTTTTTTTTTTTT…TC
# Experimental Parameters: aptamer strand: ATP DNA aptamer (quencher-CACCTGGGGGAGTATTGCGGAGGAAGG + anchor), 100 nM annealed; ATP concentration: 500 uM
Observed Property: switch fluorescence ratio
Give bare numbers.

Worked cases, answers included:
# Ordered Residues, switch fluorescence ratio
rows = [
    ("TAAAGTGTGG", 0.992),
    ("TATGAAGAGG", 0.994),
    ("TTTGGATATA", 0.973),
    ("TTGGGTCATA", 1.01),
    ("GGGGAAAACG", 0.989),
    ("ACTTCTAGGC", 1.02),
    ("TCAAGATTTT", 0.975),
    ("CATTTTTTAG", 1.01),
]

For every item below, please supply its switch fluorescence ratio.
1. TATTATGCGG
2. GGGGATTGGA
3. TTGAGCCA
4. TCCTTAATTT

Reply:
1. 0.984
2. 0.979
3. 1.01
4. 1.02

====

What switch fluorescence ratio was measured for each of the following?
# Tested on: ATP;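 note: ATP exposure 15 min at 22 °C before imaging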
# Assay Summary: switch fluorescence ratio, 500 uM ATP over buffer (Cy3 cluster intensity, sum of 5 cycles each) (fold (ratio)); higher = stronger signal-on switching upon ATP binding; sequences stand for … in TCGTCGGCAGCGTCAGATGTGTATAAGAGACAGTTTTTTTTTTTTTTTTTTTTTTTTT…TC
# Experimental Parameters: aptamer strand: ATP DNA aptamer (quencher-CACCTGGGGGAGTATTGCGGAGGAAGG + anchor), 100 nM annealed; ATP concentration: 500 uM
One number for each entry.

Worked cases, answers included:
# Ordered Residues, Measured Target, switch fluorescence ratio
measured = [
    ("GCTTCCTCTA", "ATP", 1.74),
    ("ATGTGACTCT", "ATP", 1.01),
    ("CCGATGGGCC", "ATP", 1.22),
    ("TGGTGTTTGT", "ATP", 0.983),
    ("AAGTCGTCGA", "ATP", 1.03),
    ("AAGGGTATGG", "ATP", 0.973),
    ("TGATCATATG", "ATP", 0.982),
    ("TTGATATAGT", "ATP", 0.999),
    ("CCTGATGGTA", "ATP", 1.03),
    ("GTGAGGCGGG", "ATP", 1.01),
]

For every item below, please supply its switch fluorescence ratio.
1. TTTTAGTTAG
2. GGGTGGTTGC

Reply:
1. 1.03
2. 0.995

For every item below, please supply its switch fluorescence ratio.
1. TGGGGAGAGC
2. TCGACGTTGT
3. GATGTTATAA
4. GCGAGAAGAG
5. TTTAGGAAGG
6. GATCTCGTGG

Reply:
0.992
1.1
1
1
1.02
1.01

For every item below, please supply its switch fluorescence ratio.
1. ATGCATTTTT
2. TTTATTCTTA
3. AGGTTTTTGG
4. TGTTTTATCG
5. ACATGGGTT
6. GGGTTTCAAT

Reply:
1. 1.02
2. 0.981
3. 0.963
4. 0.999
5. 1.04
6. 0.937

For every item below, please supply its switch fluorescence ratio.
1. GCATTGAGTG
2. GAGGGGGTCT
3. GGGGGTCCCT
4. TAAATAGCTT
5. TGGATCATGG

Reply:
[0.978, 1.01, 1.01, 1.08, 0.975]
